Reference for the values: patent US20180214506A1

# Protocol Text: Phase II study 2 x 90 mg i.m. Days 1 and 8 (A014): plasma PK of teverelix
# Type: in vivo
# Conditions Used: male, human, im, 90 mg, Day 8 (Dose 2): 1 x 90 mg i.m., N=14, read-out: Tmax (obs) Median
# Experimental: In order to test the hypothesis that and IM injection of a GnRH antagonist could be useful as part of a prostate cancer regimen, a Phase II Multicenter, Open-label Study Investigating the Pharmacokinetics, Pharmacodynamics, Efficacy and Safety of a Teverelix 90 mg, TFA formulation was conducted. […]
Where a name gives a salt, the structure may show the parent alone. Non-standard residues stand in square brackets, D forms with d. Residues, ends and D or L forms follow the SMILES beside them. dPhe(4-Cl) = N[C@H](Cc1ccc(Cl)cc1)C(=O)O; d2Nal = N[C@H](Cc1ccc2ccccc2c1)C(=O)O; d(hCit) = NC(=O)NCCCC[C@@H](N)C(=O)O; Lys(iPr) = CC(C)NCCCC[C@H](N)C(=O)O; d3Pal = N[C@H](Cc1cccnc1)C(=O)O
Endpoint Label: Tmax (h)
# unit: h | format: bare number

Any idea what its Tmax is? The compound is CC(=O)N[C@H](Cc1ccc2ccccc2c1)C(=O)N[C@H](Cc1ccc(Cl)cc1)C(=O)N[C@H](Cc1cccnc1)C(=O)N[C@@H](CO)C(=O)N[C@@H](Cc1ccc(O)cc1)C(=O)N[C@H](CCCCNC(N)=O)C(=O)N[C@@H](CC(C)C)C(=O)N[C@@H](CCCCNC(C)C)C(=O)N1CCC[C@H]1C(=O)N[C@H](C)C(N)=O [Teverelix TFA, teverelix trifluoroacetate] (Ac-[d2Nal][dPhe(4-Cl)][d3Pal]SY[d(hCit)]L[Lys(iPr)]P[dA]-NH2) 1

* * *

# Protocol Text: Phase II study 2 x 90 mg i.m. Days 1 and 8 (A014): plasma PK of teverelix
# Type: in vivo
# Conditions Used: male, human, im, 90 mg, Day 1 (Dose 1): 1 x 90 mg i.m., n = 8, read-out: T1/2,elim Arithmetic mean (converted)
Structures can show the parent of a compound that is named as a salt. Non-standard residues stand in square brackets, D forms with d. Residues, ends and D or L forms follow the SMILES beside them. dPhe(4-Cl) = N[C@H](Cc1ccc(Cl)cc1)C(=O)O; d2Nal = N[C@H](Cc1ccc2ccccc2c1)C(=O)O; d(hCit) = NC(=O)NCCCC[C@@H](N)C(=O)O; Lys(iPr) = CC(C)NCCCC[C@H](N)C(=O)O; d3Pal = N[C@H](Cc1cccnc1)C(=O)O
Endpoint Label: half-life

Any idea what its half-life is? The compound is CC(=O)N[C@H](Cc1ccc2ccccc2c1)C(=O)N[C@H](Cc1ccc(Cl)cc1)C(=O)N[C@H](Cc1cccnc1)C(=O)N[C@@H](CO)C(=O)N[C@@H](Cc1ccc(O)cc1)C(=O)N[C@H](CCCCNC(N)=O)C(=O)N[C@@H](CC(C)C)C(=O)N[C@@H](CCCCNC(C)C)C(=O)N1CCC[C@H]1C(=O)N[C@H](C)C(N)=O [Teverelix TFA, teverelix trifluoroacetate] (Ac-[d2Nal][dPhe(4-Cl)][d3Pal]SY[d(hCit)]L[Lys(iPr)]P[dA]-NH2) 6.94 days

* * *

# Protocol Text: Phase II study 2 x 90 mg i.m. Days 1 and 8 (A014): plasma PK of teverelix
# Format: in vivo
# Conditions Used: male, human, im, 90 mg, Day 8 (Dose 2): 1 x 90 mg i.m., N=14, read-out: T1/2,elim Arithmetic mean (converted)
Counter-ions that a name gives are not always drawn. Non-standard residues stand in square brackets, D forms with d. Residues, ends and D or L forms follow the SMILES beside them. dPhe(4-Cl) = N[C@H](Cc1ccc(Cl)cc1)C(=O)O; d2Nal = N[C@H](Cc1ccc2ccccc2c1)C(=O)O; d(hCit) = NC(=O)NCCCC[C@@H](N)C(=O)O; Lys(iPr) = CC(C)NCCCC[C@H](N)C(=O)O; d3Pal = N[C@H](Cc1cccnc1)C(=O)O
Endpoint Label: half-life
Answers without a unit are incomplete; give the number and then its unit.

Any idea what its half-life is? The compound is CC(=O)N[C@H](Cc1ccc2ccccc2c1)C(=O)N[C@H](Cc1ccc(Cl)cc1)C(=O)N[C@H](Cc1cccnc1)C(=O)N[C@@H](CO)C(=O)N[C@@H](Cc1ccc(O)cc1)C(=O)N[C@H](CCCCNC(N)=O)C(=O)N[C@@H](CC(C)C)C(=O)N[C@@H](CCCCNC(C)C)C(=O)N1CCC[C@H]1C(=O)N[C@H](C)C(N)=O [Teverelix TFA, teverelix trifluoroacetate] (Ac-[d2Nal][dPhe(4-Cl)][d3Pal]SY[d(hCit)]L[Lys(iPr)]P[dA]-NH2) 16.9 days
